These measurements were taken from patent US10865334B2.

Catalogue of molecules with associated solubility
Assay: solubility data in some typical Des at 40° C.
Assay type: physicochemical
Conditions: deep eutectic solvent SoCH, organic solvent or mixture, solvent SoCH (So:Ch:H2O), n = 3, read-out: solubility in SoCH
Could you give me the number in mg/mL? Just the number is fine.

Sample answers from the record:
{"molecule": "O=c1c(O)c(-c2ccc(O)c(O)c2)oc2cc(O)cc(O)c12 [quercetin]", "experimental.endpoint": "solubility", "recorded.number": 146}
{"molecule": "C[C@@H]1O[C@@H](OC[C@H]2O[C@@H](Oc3c(-c4ccc(O)c(O)c4)oc4cc(O)cc(O)c4c3=O)[C@H](O)[C@@H](O)[C@@H]2O)[C@H](O)[C@H](O)[C@H]1O [rutin, quercetin-3-O-rhanmoglucoside]", "experimental.endpoint": "solubility", "recorded.number": 149}

// moving on: another record for solubility
Query string: Bench note: what solubility did CC(=O)O[C@H]1C(=O)[C@@]2(C)[C@H]([C@H](OC(=O)c3ccccc3)[C@]3(O)C[C@H](OC(=O)[C@H](O)[C@@H](NC(=O)c4ccccc4)c4ccccc4)C(C)=C1C3(C)C)[C@]1(OC(C)=O)CO[C@@H]1C[C@@H]2O [paclitaxel] show?
Result string: 0.59
